Listed here: items and their measured Top plateau values in presence of 5 µg/mL mAb (% of hCCL1 (100 nM)), protocol #3.
# assayed-system: human CCR8 (human, UniProt P51685 1-355)
# protocol-notes: cell-based or functional assay
readout-type: Top plateau values in presence of 5 µg/mL mAb (% of hCCL1 (100 nM)), protocol #3

binder | result-value
anti-CCR8 mAb 2-11 (antibody, V domains shown) VH: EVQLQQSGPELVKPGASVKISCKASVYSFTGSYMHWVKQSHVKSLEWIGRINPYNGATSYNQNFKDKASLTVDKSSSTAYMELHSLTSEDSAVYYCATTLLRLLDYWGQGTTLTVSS VL: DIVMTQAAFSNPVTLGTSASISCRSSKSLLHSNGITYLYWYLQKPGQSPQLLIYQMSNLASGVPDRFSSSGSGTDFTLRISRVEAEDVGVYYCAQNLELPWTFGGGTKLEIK | 292%
anti-CCR8 mAb 2-4 (antibody, V domains shown) VH: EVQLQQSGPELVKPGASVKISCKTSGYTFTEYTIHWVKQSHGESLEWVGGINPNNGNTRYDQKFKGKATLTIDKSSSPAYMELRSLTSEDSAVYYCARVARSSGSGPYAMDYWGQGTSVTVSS VL: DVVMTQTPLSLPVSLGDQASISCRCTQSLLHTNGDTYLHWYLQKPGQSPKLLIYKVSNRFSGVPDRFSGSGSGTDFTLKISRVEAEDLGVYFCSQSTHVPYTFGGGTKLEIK | 855%
anti-CCR8 mAb 2-2 (antibody, V domains shown) VH: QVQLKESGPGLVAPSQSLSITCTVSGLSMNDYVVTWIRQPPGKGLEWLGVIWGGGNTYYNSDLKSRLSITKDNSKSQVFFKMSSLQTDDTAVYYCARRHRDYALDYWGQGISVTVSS VL: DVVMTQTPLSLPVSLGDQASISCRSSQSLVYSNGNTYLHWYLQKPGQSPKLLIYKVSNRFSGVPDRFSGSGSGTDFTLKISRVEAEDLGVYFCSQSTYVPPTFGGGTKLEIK | 133%
anti-CCR8 mAb 2-10 (antibody, V domains shown) VH: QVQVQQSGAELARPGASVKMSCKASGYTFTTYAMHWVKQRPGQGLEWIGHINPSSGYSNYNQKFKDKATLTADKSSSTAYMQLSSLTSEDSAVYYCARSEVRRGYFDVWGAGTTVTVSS VL: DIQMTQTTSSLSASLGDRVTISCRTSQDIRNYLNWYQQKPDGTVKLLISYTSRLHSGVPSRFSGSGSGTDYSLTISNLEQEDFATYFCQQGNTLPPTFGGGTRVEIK | 948%
anti-CCR8 mAb 2-1 (antibody, V domains shown) VH: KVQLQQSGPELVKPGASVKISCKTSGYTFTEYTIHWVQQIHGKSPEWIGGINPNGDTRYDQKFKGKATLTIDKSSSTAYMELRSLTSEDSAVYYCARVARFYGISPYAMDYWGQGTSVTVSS VL: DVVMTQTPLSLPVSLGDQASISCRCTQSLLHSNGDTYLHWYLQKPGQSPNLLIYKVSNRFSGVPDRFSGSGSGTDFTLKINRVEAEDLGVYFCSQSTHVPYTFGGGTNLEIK | 663%

Data provenance: patent US20260167731A1
